This section presents molecules with their documented Crabgrass, Large plant response rating values.
- Test system: large crabgrass
- assay-overview: Test F preemergence test
- Format: in vivo, Digitaria sanguinalis
- condition-info: 62 g ai/ha, Preemergence; scale 0 to 100
Give the figure only, with no unit attached.

{"molecule": "Cc1cc[n+]([O-])c([S+]([O-])Cc2c(C(F)(F)F)nn(C)c2OCC(F)(F)F)c1 (racemic)", "target-desc": "large crabgrass", "value-measured": 100}
{"molecule": "Cc1cc[n+]([O-])c(S(=O)(=O)Cc2c(C(F)(F)F)nn(C)c2Cl)c1", "target-desc": "large crabgrass", "value-measured": 80}
{"molecule": "Cc1cc[n+]([O-])c([S+]([O-])Cc2c(C(F)(F)F)nn(C)c2Cl)c1 (racemic)", "target-desc": "large crabgrass", "value-measured": 80}

Shifting focus to the molecule that follows.
Task: Need Crabgrass, Large plant response rating of Cc1cc[n+]([O-])c(S(=O)(=O)C(Cl)c2c(C(F)(F)F)nn(C)c2OCC(F)(F)F)c1 (racemic) , thanks.
Result: 50

----------
- System: purple nutsedge
- assay-overview: Test F preemergence test
- Type: in vivo, Cyperus rotundus
- condition-info: 62 g ai/ha, Preemergence; scale 0 to 100
reported-metric: Purple Nutsedge plant response rating
Give the figure only, with no unit attached.

Recorded Purple Nutsedge plant response rating, per entry:
{"molecule": "Cc1cc[n+]([O-])c([S+]([O-])Cc2c(C(F)(F)F)nn(C)c2Cl)c1 (racemic)", "value-measured": 25}
{"molecule": "Cn1nc(C(F)(F)C(F)(F)F)c(C[S+]([O-])c2cccc[n+]2[O-])c1OCC(F)(F)F (stereo not drawn)", "value-measured": 0}
{"molecule": "CCc1cc[n+]([O-])c(S(=O)(=O)Cc2c(C(F)(F)F)nn(C)c2OCC(F)(F)F)c1", "value-measured": 50}
{"molecule": "Cc1cc[n+]([O-])c(S(=O)(=O)Cc2c(C(F)(F)F)nn(C)c2Cl)c1", "value-measured": 60}
{"molecule": "Cc1cc[n+]([O-])c(S(=O)(=O)C(Cl)c2c(C(F)(F)F)nn(C)c2OCC(F)(F)F)c1 (racemic)", "value-measured": 0}

Task: Need Purple Nutsedge plant response rating of Cn1nc(C(F)(F)F)c(C[S+]([O-])c2cccc[n+]2[O-])c1OC(F)F (stereo not drawn) , thanks.
Result: 80

Task: Need Purple Nutsedge plant response rating of CCn1nc(C(F)(F)F)c(CS(=O)(=O)c2cccc[n+]2[O-])c1OCC(F)(F)F , thanks.
Result: 65

Task: Need Purple Nutsedge plant response rating of CC(c1c(C(F)(F)F)nn(C)c1OC(F)F)S(=O)(=O)c1cccc[n+]1[O-] (stereo not drawn) , thanks.
Result: 90

Task: Need Purple Nutsedge plant response rating of Cn1nc(OC(F)F)c(CS(=O)(=O)c2cccc[n+]2[O-])c1C(F)(F)F , thanks.
Result: 50

----------
This section presents compounds with their documented Plant response rating (0 to 100), Wheat values.
- System: wheat
- assay-overview: Test C pre-/postemergence test
- Format: in vivo, Triticum aestivum
- condition-info: Postemergence, 62 g ai/ha
Give the figure only, with no unit attached.

{"compound": "[O-][n+]1cc(Cl)ccc1[S+]([O-])Cc1c(C(F)(F)F)nn(CC(F)(F)F)c1Cl (centres unmarked)", "value-measured": 0}
{"compound": "CC(Oc1c(CS(=O)(=O)c2cccc[n+]2[O-])c(C(F)(F)F)nn1C)C(F)(F)F (centres unmarked)", "value-measured": 20}
{"compound": "CCn1nc(C(F)(F)F)c(C[S+]([O-])c2cccc[n+]2[O-])c1OCC(F)(F)F (racemic)", "value-measured": 0}
{"compound": "Cn1nc(C(F)(F)F)c(C[S+]([O-])c2cccc[n+]2[O-])c1OCC(F)(F)C(F)(F)F (centres unmarked)", "value-measured": 0}
{"compound": "Cn1nc(C(F)(F)F)c(C[S+]([O-])c2ccc(F)c[n+]2[O-])c1OC(F)F (centres unmarked)", "value-measured": 0}

Task: Need Plant response rating (0 to 100), Wheat of CC(c1c(C(F)(F)F)nn(C)c1Cl)S(=O)(=O)c1ccc(Cl)c[n+]1[O-] (racemic) , thanks.
Result: 0

Task: Need Plant response rating (0 to 100), Wheat of Cc1cc[n+]([O-])c(S(=O)(=O)Cc2c(C(F)(F)F)nn(C)c2OC(F)F)c1 , thanks.
Result: 0

Task: Need Plant response rating (0 to 100), Wheat of Cn1nc(C(F)(F)F)c(C[S+]([O-])c2ccc(Cl)c[n+]2[O-])c1OCC(F)(F)F (racemic) , thanks.
Result: 10

----------
- Tested on: green foxtail
- assay-overview: Test C pre-/postemergence test
- Assay type: in vivo, Setaria viridis
- condition-info: Preemergence, 31 g ai/ha; scale 0 to 100 (0 no effect, 100 complete control)
This section presents compounds with their documented Plant response rating, Foxtail, Green values.
Give the figure only, with no unit attached.

Recorded Plant response rating, Foxtail, Green, per entry:
{"compound": "CC(Oc1c(C[S+]([O-])c2ccc(Cl)c[n+]2[O-])c(C(F)(F)F)nn1C)C(F)(F)F (centres unmarked) [Compound 87]", "value-measured": 95}
{"compound": "Cn1nc(C(F)(F)F)c(C[S+]([O-])c2cc(C(C)(C)C)cc[n+]2[O-])c1OC(F)F (racemic) [Compound 24]", "value-measured": 10}
{"compound": "Cn1nc(C(F)(F)F)c(C[S+]([O-])c2cc(Br)cc[n+]2[O-])c1Cl (racemic) [Compound 35]", "value-measured": 0}
{"compound": "CCc1cc[n+]([O-])c(S(=O)(=O)Cc2c(C(F)(F)F)nn(C)c2OCC(F)(F)F)c1 [Compound 60]", "value-measured": 85}

Shifting focus to the compound that follows.
Task: Form field - read-out: Plant response rating, Foxtail, Green; system: green foxtail; submitted item: Cc1cc([S+]([O-])Cc2c(C(F)(F)F)nn(C)c2OCC(F)(F)F)[n+]([O-])cc1Cl (centres unmarked) [Compound 70]
Result: 100

----------
- Test system: velvetleaf
- assay-overview: Test C pre-/postemergence test
- Format: in vivo, Abutilon theophrasti
- condition-info: Postemergence, 125 g ai/ha; scale 0 to 100, 0 no effect, 100 complete control
This section presents compounds with their documented Plant response rating, Velvetleaf values.
Give the figure only, with no unit attached.

Recorded Plant response rating, Velvetleaf, per entry:
{"compound": "Cc1cc[n+]([O-])c(S(=O)(=O)Cc2c(C(F)(F)F)nn(C)c2OC(F)F)c1 [Compound 2]", "reported-metric": "Plant response rating, Velvetleaf", "value-measured": 0}
{"compound": "Cn1nc(C(F)(F)C(F)(F)F)c(C[S+]([O-])c2cccc[n+]2[O-])c1OCC(F)(F)F (stereo not shown) [Compound 79]", "reported-metric": "Plant response rating, Velvetleaf", "value-measured": 50}
{"compound": "CCn1nc(C(F)(F)F)c(CS(=O)(=O)c2cc(C)cc[n+]2[O-])c1OCC(F)(F)F [Compound 64]", "reported-metric": "Plant response rating, Velvetleaf", "value-measured": 0}
{"compound": "Cn1nc(C(F)(F)F)c(C[S+]([O-])c2ccc(Cl)c[n+]2[O-])c1OC(F)F (stereo not shown) [Compound 6]", "reported-metric": "Plant response rating, Velvetleaf", "value-measured": 30}
{"compound": "CCn1nc(C(F)(F)F)c(C(C)S(=O)(=O)c2cccc[n+]2[O-])c1OCC(F)(F)F (stereo not shown) [Compound 69]", "reported-metric": "Plant response rating, Velvetleaf", "value-measured": 0}
{"compound": "CC(c1c(C(F)(F)F)nn(C)c1OC(F)F)S(=O)(=O)c1cccc[n+]1[O-] (stereo not shown) [Compound 5]", "reported-metric": "Plant response rating, Velvetleaf", "value-measured": 5}

Shifting focus to the compound that follows.
Task: Need Plant response rating, Velvetleaf of Cn1nc(C(F)(F)F)c(C[S+]([O-])c2ccc(F)c[n+]2[O-])c1OCC(F)(F)F (stereo not shown) [Compound 67] , thanks.
Result: 30

----------
This section presents compounds with their documented Johnsongrass plant response rating values.
- Test system: johnsongrass
- assay-overview: Test C pre-/postemergence test
- Assay type: in vivo, Sorghum halepense
- condition-info: preemergence, 250 g ai/ha; scale 0 (no effect) to 100 (complete control)
Give the figure only, with no unit attached.

Recorded Johnsongrass plant response rating, per entry:
{"compound": "Cn1nc(C(F)(F)F)c(C[S+]([O-])c2ccc(F)c[n+]2[O-])c1OCC(F)(F)F (stereo not drawn)", "reported-metric": "Johnsongrass plant response rating", "value-measured": 85}
{"compound": "CC(Oc1c(C[S+]([O-])c2cccc[n+]2[O-])c(C(F)(F)F)nn1C)C(F)(F)F (stereo not drawn)", "reported-metric": "Johnsongrass plant response rating", "value-measured": 100}

Shifting focus to the compound that follows.
Task: Need Johnsongrass plant response rating of Cn1nc(C(F)(F)F)c(C(Cl)S(=O)(=O)c2cccc[n+]2[O-])c1OC(F)F (stereo not drawn) , thanks.
Result: 100
